Entries and their measured pKi follow.
# test-system: Adenosine receptor A3 (Homo sapiens)
# Sequence (P0DMS8 whole entry): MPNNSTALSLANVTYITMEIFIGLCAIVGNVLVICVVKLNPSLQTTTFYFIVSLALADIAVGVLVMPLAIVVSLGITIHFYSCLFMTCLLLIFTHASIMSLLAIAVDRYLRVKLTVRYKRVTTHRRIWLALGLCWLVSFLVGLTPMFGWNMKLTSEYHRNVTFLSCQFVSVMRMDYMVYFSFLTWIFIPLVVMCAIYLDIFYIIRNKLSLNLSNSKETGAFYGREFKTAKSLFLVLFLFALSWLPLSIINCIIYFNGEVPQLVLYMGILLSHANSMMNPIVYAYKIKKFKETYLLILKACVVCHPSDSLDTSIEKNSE
# procedure-text: Displacement of [125I]AB-MECA from human recombinant adenosine A3 receptor expressed in CHO cells after 60 mins by gamma counting
pKi: −log10 of the molar value.
assay-endpoint: pKi

smi: CNC(=O)[C@]12C[C@@H]1[C@@H](n1cnc3c(NCc4cccc(Cl)c4)nc(C#CCCC(=O)NCCNC(=O)CCCC[C@H]4SC[C@H]5NC(=O)N[C@H]54)nc31)[C@H](O)[C@@H]2O
assay-endpoint: pKi
value: 7.44

smi: O[C@@H]1[C@H](O)[C@@H]2C[C@@H]2[C@H]1n1cnc2c(NCc3cccc(Cl)c3)ncnc21
assay-endpoint: pKi
value: 8.31

smi: CNC(=O)[C@]12C[C@@H]1[C@@H](n1cnc3c(NCc4cccc(Cl)c4)nc(C#CCCC(=O)OC)nc31)[C@H](O)[C@@H]2O
assay-endpoint: pKi
value: 8.26

smi: CNC(=O)[C@]12C[C@@H]1[C@@H](n1cnc3c(NCc4cccc(Cl)c4)nc(C#CCCCCC(=O)OC)nc31)[C@H](O)[C@@H]2O
assay-endpoint: pKi
value: 7.95

smi: CNC(=O)[C@]12C[C@@H]1[C@@H](n1cnc3c(NCc4cccc(Cl)c4)nc(C#CCCCCC(=O)NCCN)nc31)[C@H](O)[C@@H]2O
assay-endpoint: pKi
value: 8.47

smi: CNC(=O)[C@]12C[C@H]1[C@@H](n1cnc3c(NCc4cccc(Cl)c4)nc(C#CCCCCC(=O)NCCN)nc31)[C@@H](O)[C@H]2O
assay-endpoint: pKi
value: 5.33

smi: NCCNC(=O)CCC#Cc1nc(NCc2cccc(Cl)c2)c2ncn([C@H]3[C@H](O)[C@H](O)[C@@H]4C[C@@H]43)c2n1
assay-endpoint: pKi
value: 6.39

smi: CNC(=O)[C@]12C[C@@H]1[C@@H](n1cnc3c(NCc4cccc(Cl)c4)nc(C#CCCC(=O)NCCCCN)nc31)[C@H](O)[C@@H]2O
assay-endpoint: pKi
value: 8.68

smi: O[C@@H]1[C@H](O)[C@@H]2C[C@@H]2[C@H]1n1cnc2c(NCc3cccc(I)c3)nc(F)nc21
assay-endpoint: pKi
value: 7.97

smi: CNC(=O)[C@]12C[C@@H]1[C@@H](n1cnc3c(NCc4cccc(Cl)c4)nc(C#CCCCCC(=O)O)nc31)[C@H](O)[C@@H]2O
assay-endpoint: pKi
value: 7.91

smi: CNC(=O)[C@]12C[C@@H]1[C@@H](n1cnc3c(NCc4cccc(Cl)c4)nc(C#CCCC(=O)O)nc31)[C@H](O)[C@@H]2O
assay-endpoint: pKi
value: 7.21

smi: CNC(=O)[C@]12C[C@@H]1[C@@H](n1cnc3c(NCc4cccc(I)c4)ncnc31)[C@H](O)[C@@H]2O
assay-endpoint: pKi
value: 8.62

smi: CNC(=O)[C@]12C[C@@H]1[C@@H](n1cnc3c(NCc4cccc(Cl)c4)nc(C#CCCC(=O)NCCN)nc31)[C@H](O)[C@@H]2O
assay-endpoint: pKi
value: 8.60
